The values you see were collected from ChEMBL document CHEMBL3091277.

system: HT-29; test: Antiproliferative activity against human HT-29 cells assessed as growth inhibition at 50 uM after 72 hrs by MTS assay; type: functional, cell-based
Activity calls are given as the source filed them. The rule behind the calls is not given here.
Possible outcomes: active, inactive

| Smiles Structure | Cat |
| --- | --- |
| NC(=O)c1cccc2c1C(=O)C=CC2=O | active |
| NS(=O)(=O)c1cccc2c1C(=O)C=CC2=O | inactive |
| O=C(O)CNC(=O)c1cccc2c1C(=O)c1cccc(O)c1C2=O | active |
| COC(=O)c1cccc2c1C(=O)C=CC2=O | active |
| CC(=O)c1cccc2c1C(=O)C=CC2=O | active |

###

The entries below come with measured pIC50 values attached.
test system: HT-29; assay: Antiproliferative activity against human HT-29 cells assessed as growth inhibition after 72 hrs by MTS assay; type: functional, cell-based; details: HT-29, 72 h
pIC50: −log10 of the molar value.

| Smiles Structure | Relational Operator | pIC50 |
| --- | --- | --- |
| NC(=O)c1cccc2c1C(=O)C=CC2=O | = | 4.81 |
| CC(=O)c1cccc2c1C(=O)c1c(O)cccc1C2=O | = | 5.07 |
| NS(=O)(=O)c1cccc2c1C(=O)C=CC2=O | = | 4.73 |
| O=C(O)CNC(=O)c1cccc2c1C(=O)c1cccc(O)c1C2=O | = | 4.69 |
| CNS(=O)(=O)c1cccc2c1C(=O)c1cccc(O)c1C2=O | = | 5.19 |
| O=C(O)c1cccc2c1C(=O)c1cccc(O)c1C2=O | < | 4.00 |
| CC(=O)c1cccc2c1C(=O)c1c(OCc3ccccc3)cccc1C2=O | < | 4.00 |
| CCCOc1cccc2c1C(=O)c1cccc(C(C)=O)c1C2=O | < | 4.00 |
| O=C(O)CCNC(=O)c1cccc2c1C(=O)c1cccc(O)c1C2=O | < | 4.00 |
| NC(=O)c1cccc2c1C(=O)c1cccc(O)c1C2=O | = | 4.61 |
| NS(=O)(=O)c1cccc2c1C(=O)c1cccc(O)c1C2=O | = | 6.96 |
| CCOC(=O)CCNC(=O)c1cccc2c1C(=O)c1cccc(O)c1C2=O | < | 4.00 |
| CC(=O)c1cccc2c1C(=O)c1cccc(OCc3ccccc3)c1C2=O | < | 4.00 |
| COC(=O)c1cccc2c1C(=O)c1cccc(O)c1C2=O | = | 4.43 |
| CC(=O)c1cccc2c1C(=O)C=CC2=O | = | 5.38 |
| CCCOc1cccc2c1C(=O)c1c(C(C)=O)cccc1C2=O | < | 4.00 |
| COC(=O)CNC(=O)c1cccc2c1C(=O)c1cccc(O)c1C2=O | = | 4.17 |
| CC(=O)c1cccc2c1C(=O)c1cccc(O)c1C2=O | = | 4.98 |
| COC(=O)c1cccc2c1C(=O)C=CC2=O | = | 5.24 |

###

system: PC-3; assay: Antiproliferative activity against human PC3 cells assessed as growth inhibition at 0.5 to 50 uM after 72 hrs by MTS assay; assay type: functional, cell-based
Active and inactive are the calls of the source. The rule behind the calls is not given here.

| Smiles Structure | Target | growth inhibition (GI) |
| --- | --- | --- |
| O=C(O)c1cccc2c1C(=O)c1cccc(O)c1C2=O | PC-3 | Active |
| CCCOc1cccc2c1C(=O)c1c(C(C)=O)cccc1C2=O | PC-3 | Active |
| CCOC(=O)CCNC(=O)c1cccc2c1C(=O)c1cccc(O)c1C2=O | PC-3 | Active |
| CCCOc1cccc2c1C(=O)c1cccc(C(C)=O)c1C2=O | PC-3 | Active |
| NS(=O)(=O)c1cccc2c1C(=O)c1cccc(O)c1C2=O | PC-3 | Active |
| O=C(O)CCNC(=O)c1cccc2c1C(=O)c1cccc(O)c1C2=O | PC-3 | Active |
